Molecular target: T1, rVEGF164 (rat, UniProt P16612-2 27-190)
T1 sequence: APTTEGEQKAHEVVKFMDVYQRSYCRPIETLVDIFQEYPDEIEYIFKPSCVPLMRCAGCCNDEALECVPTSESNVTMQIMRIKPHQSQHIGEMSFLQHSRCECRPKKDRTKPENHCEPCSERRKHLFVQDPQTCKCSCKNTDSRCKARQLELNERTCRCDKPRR
Assay: ELONA2
measure.name: Kd

INSERT INTO assay_data (binder, measurement) VALUES
  ('TGTGGGGGTGGACGGGCCGGGTAGA (ssDNA) [V7t1]', '4.3 nM');

Source: paper PMC6547419
